Assay: amyloid nucleation score (Sup35N fusion, yeast selection) (log enrichment); library NNK3; higher = more nucleation; inactive = no reads after selection;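 further: zero at mode of non-aggregating sequences after 7 days selection at 30°C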
recorded metric: amyloid nucleation score

Use these answered entries as a reference point.
>  <substance>
NWYDSWRVFAQNKDCSLWA

>  <amyloid nucleation score>
inactive

$$$$
>  <substance>
VDYSRALTAYVCIPANFSVP

>  <amyloid nucleation score>
inactive

$$$$
>  <substance>
CYWEPRSWISCRRPILRMSV

>  <amyloid nucleation score>
inactive

$$$$
>  <substance>
QILYFVDTEVSYMEASWRDS

>  <amyloid nucleation score>
inactive

$$$$
>  <substance>
RLSWSQPVLNVSTCEGVN

>  <amyloid nucleation score>
inactive

$$$$

Now take the following substance into account.
Specify measured amyloid nucleation score for `SRMSGLWD` .
inactive

###

Assay: amyloid nucleation score (Sup35N fusion, yeast selection) (log enrichment); library NNK2; higher = more nucleation; inactive = no reads after selection
recorded metric: amyloid nucleation score
# output: bare number, no unit

>  <chain sequence>
CSNYQRYTILVYPTRSYGCL

>  <recorded metric>
amyloid nucleation score

>  <obs value>
0.558

$$$$

Specify measured amyloid nucleation score for `QTSLSTMMYLPCH` .
0.7

Specify measured amyloid nucleation score for `TGAWLALFLGRHAKWLALFM` .
0.817

Specify measured amyloid nucleation score for `SVTRRVSYRSYLVLVGEWKQ` .
0.901

Specify measured amyloid nucleation score for `HATLNPSSLSATSSNPACRL` .
0.171

Specify measured amyloid nucleation score for `YSYVVNLLTYTRSECKMLV` .
5.74

Specify measured amyloid nucleation score for `SLNSGFRDPIYWSVLRRSPS` .
6.81

###

Experiment: amyloid nucleation score (Sup35N fusion, yeast selection) (log enrichment); library NNK3; higher = more nucleation; inactive = no reads after selection
recorded metric: amyloid nucleation score

>  <substance>
SGLKTFLEMSLHLCVLLARA

>  <amyloid nucleation score>
inactive

$$$$
>  <substance>
PPRSSLFTFNIFKYNNLYNA

>  <amyloid nucleation score>
2.72

$$$$
>  <substance>
RRTWGSMYTKVLSISFLGPG

>  <amyloid nucleation score>
1.48

$$$$
>  <substance>
RNPWKFAATRFRLLQNPLVE

>  <amyloid nucleation score>
-0.185

$$$$
>  <substance>
LWYHWHNA

>  <amyloid nucleation score>
inactive

$$$$

Now take the following substance into account.
Specify measured amyloid nucleation score for `RVSGEMFASSL` .
inactive

###

Assay: amyloid nucleation score (Sup35N fusion, yeast selection) (log enrichment); library NNK2; higher = more nucleation; inactive = no reads after selection
This section presents substances with their documented amyloid nucleation score values.
# output: bare number, no unit

Use these answered entries as a reference point.
>  <substance>
NVSSSLPF

>  <recorded metric>
amyloid nucleation score

>  <obs value>
-0.424

$$$$
>  <substance>
NNINLTYRLYSVLDHYKLYE

>  <recorded metric>
amyloid nucleation score

>  <obs value>
2.66

$$$$
>  <substance>
MPGMVTSCTVFCNQFKMETC

>  <recorded metric>
amyloid nucleation score

>  <obs value>
6.46

$$$$
>  <substance>
NCSCIFKNCGFNWVFLGRIL

>  <recorded metric>
amyloid nucleation score

>  <obs value>
2.29

$$$$
>  <substance>
PVRSMNPLRRLNESSRFDEE

>  <recorded metric>
amyloid nucleation score

>  <obs value>
1.48

$$$$

Specify measured amyloid nucleation score for `WFMVYYSLFTVNIGISRMDH` .
3.52

Specify measured amyloid nucleation score for `TGYHNLMGVLGMVAVKHELG` .
-0.09

Specify measured amyloid nucleation score for `LLSQKRGCHVSGHIGVEA` .
-0.218

Specify measured amyloid nucleation score for `GWQGISAVSRGTGCWLEGTG` .
0.649

Specify measured amyloid nucleation score for `FFPPFVNLGVGTYQV` .
-1.37

Specify measured amyloid nucleation score for `LHFQYERSWNARSTLM` .
4.08

###

Experiment: amyloid nucleation score (Sup35N fusion, yeast selection) (log enrichment); library NNK1; higher = more nucleation; inactive = no reads after selection
recorded metric: amyloid nucleation score

Use these answered entries as a reference point.
>  <substance>
TYSLYMCADKFRNTLVNKAV

>  <amyloid nucleation score>
inactive

$$$$
>  <substance>
VDLFYE

>  <amyloid nucleation score>
inactive

$$$$
>  <substance>
SFFMYLNIRWIWSMCVNAIE

>  <amyloid nucleation score>
0.09

$$$$
>  <substance>
FFISALLNSSFGEFTFGSVK

>  <amyloid nucleation score>
-0.432

$$$$
>  <substance>
FYYGSLPYCVTKRFRDFGNQ

>  <amyloid nucleation score>
3.02

$$$$

Specify measured amyloid nucleation score for `ARVSGILLVMLCRYHFGLRE` .
0.102

Specify measured amyloid nucleation score for `FSMGGYFLFLCNNFTLYHIS` .
7.6

Specify measured amyloid nucleation score for `RCISIRAYVTLFRNEYLCSN` .
4.86

Specify measured amyloid nucleation score for `LSRPTYSRMHIWISCHLIVV` .
-0.707

Specify measured amyloid nucleation score for `CPASKFDQGP` .
-0.038

Specify measured amyloid nucleation score for `SYSGTVCNRLRLVLVVDD` .
-0.098

Specify measured amyloid nucleation score for `HSGYTYDRRYPCNYDFSIQV` .
inactive

Specify measured amyloid nucleation score for `CHQAEPGIGMRSCTLVGEGV` .
1.36

Specify measured amyloid nucleation score for `LWYCTSSNNCDCSAAIIVNT` .
4.19

Specify measured amyloid nucleation score for `FDSLVSREFVP` .
-0.887

###

Assay: amyloid nucleation score (Sup35N fusion, yeast selection) (log enrichment); library NNK2; higher = more nucleation; inactive = no reads after selection
The label depends only on amyloid nucleation score: satisfied if it is at least 0.1, not satisfied if it is smaller.

For this substance, is measured amyloid nucleation score 0.1 or higher? `EIARLTNLDWTNISTFL`
not satisfied

For this substance, is measured amyloid nucleation score 0.1 or higher? `MCMGFRRPLTRTFFRTLCAR`
satisfied

For this substance, is measured amyloid nucleation score 0.1 or higher? `YFCSLDSMPQSSVFDYLSAL`
not satisfied

For this substance, is measured amyloid nucleation score 0.1 or higher? `VLFSDA`
not satisfied

###

Assay: amyloid nucleation score (Sup35N fusion, yeast selection) (log enrichment); library NNK3; higher = more nucleation; inactive = no reads after selection
recorded metric: amyloid nucleation score

Use these answered entries as a reference point.
>  <substance>
SMWYLVLN

>  <obs value>
inactive

$$$$
>  <substance>
MGLLSTFFVEFFKT

>  <obs value>
inactive

$$$$
>  <substance>
TFRYCTVLMFAVSFWQFHRC

>  <obs value>
inactive

$$$$
>  <substance>
DSIAVCGRITPSLNLQFDMQ

>  <obs value>
inactive

$$$$
>  <substance>
FVLMPSSFYNYWTTSEDFRS

>  <obs value>
inactive

$$$$

Specify measured amyloid nucleation score for `YGTMFLENTYNPFPVGSHVF` .
inactive

Specify measured amyloid nucleation score for `LLSVTCTG` .
inactive

Specify measured amyloid nucleation score for `SPFCFSCIHACWGNEKIRWV` .
inactive

Specify measured amyloid nucleation score for `GWRAIWGNWNLQYRTS` .
inactive

Specify measured amyloid nucleation score for `KMTFSWSLHHYCKP` .
1.08

Specify measured amyloid nucleation score for `RSRRFGYSAAISFTIGNLNS` .
1.28

Specify measured amyloid nucleation score for `TIGFIGWWGVFYDTDWLRI` .
-0.566

###

Test: amyloid nucleation score (Sup35N fusion, yeast selection) (log enrichment); library NNK2; higher = more nucleation; inactive = no reads after selection
recorded metric: amyloid nucleation score

>  <substance>
TLDYGIFTVVNSTLWLYRSV

>  <recorded metric>
amyloid nucleation score

>  <obs value>
inactive

$$$$
>  <substance>
VGIDYV

>  <recorded metric>
amyloid nucleation score

>  <obs value>
inactive

$$$$
>  <substance>
IEGREGCARDNKGYYTALLL

>  <recorded metric>
amyloid nucleation score

>  <obs value>
inactive

$$$$
>  <substance>
YDNKASDVMVNYLRHICVYS

>  <recorded metric>
amyloid nucleation score

>  <obs value>
inactive

$$$$

###

Test: amyloid nucleation score (Sup35N fusion, yeast selection) (log enrichment); library NNK1; higher = more nucleation; inactive = no reads after selection
The label depends only on amyloid nucleation score: true if it is at least 0.5, false if it is smaller.

For this sequence, is measured amyloid nucleation score 0.5 or higher? `IKFRCYLCG`
false

For this sequence, is measured amyloid nucleation score 0.5 or higher? `FYFRNSSGF`
true

For this sequence, is measured amyloid nucleation score 0.5 or higher? `LTSRIEWNGHAQSLWWLLSK`
true

For this sequence, is measured amyloid nucleation score 0.5 or higher? `WKYVTLELIWWTTLVTAWGT`
true

For this sequence, is measured amyloid nucleation score 0.5 or higher? `MLPRPVRPVGGTRWESGVKL`
true

For this sequence, is measured amyloid nucleation score 0.5 or higher? `IFGKTFTGYMVRFGVVHDLA`
false
